protocol.summary: Cytotoxicity: inhibition of cell growth
Type: cell-based
experimental.context: human, im9 cells, read-out: % of Cells Surviving at 100 µM
endpoint.label: viability at 100 µM
Write the figure, then the unit, nothing else.

Annotate the molecule `Cc1cc(C)cc(S(=O)(=O)c2cccc(N)c2C#N)c1` with its measured viability at 100 µM.
97%

* * *

protocol.summary: Cytotoxicity: inhibition of cell growth
Type: cell-based
experimental.context: human, cem cells, read-out: % of Cells Surviving at 100 µM
Description: Compounds of the invention were tested for the inhibition of growth of human T-cells (Molt 4), B-cells (IM9) and CEM cells by the method of Averett, D.R., J. Virol. Methods, 23, 263-276 (1989). Cells were grown as described in Prus, K.L., et al., Cancer Res., 50(6), 1817-1821 (1990).
endpoint.label: viability at 100 µM (%)
Provide the reading as a plain figure in %.

Annotate the molecule `Cc1cc(C)cc(S(=O)(=O)c2cccc(N)c2C#N)c1` with its measured viability at 100 µM.
70
